Assay: refractive index (Na D-line) (dimensionless)
Conditions: 348.15 K; 100 kPa; Liquid; Standard Abbe refractometry
parameterMeasured: refractive index

molecule: CCCC[P+](CCCC)(CCCC)CCCC.O=S(=O)([O-])CC(O)CNC1CCCCC1
refractive index: 1.47764
--
molecule: C[N+](C)(C)CCO.O=S(=O)([O-])CC(O)CN1CCOCC1 (centres undefined)
refractive index: 1.48671
--
molecule: CCCC[N+](CCCC)(CCCC)CCCC.O=S(=O)([O-])CCN(CCO)CCO
refractive index: 1.47502
--
molecule: CCCC[N+](CCCC)(CCCC)CCCC.O=S(=O)([O-])CC(O)CNC1CCCCC1
refractive index: 1.47137
--
molecule: C[N+](C)(C)CCO.O=S(=O)([O-])CC(O)CNC(CO)(CO)CO (centres undefined)
refractive index: 1.5044
--
molecule: CCCC[P+](CCCC)(CCCC)CCCC.O=S(=O)([O-])CC(O)CN1CCOCC1 [tetrabutylphosphonium 2-hydroxy-3-morpholinopropanesulfonate]
refractive index: 1.47761
--
molecule: CCCC[P+](CCCC)(CCCC)CCCC.O=S(=O)([O-])CCN(CCO)CCO
refractive index: 1.48142
--
molecule: C[N+](C)(C)CCO.O=S(=O)([O-])CCN(CCO)CCO
refractive index: 1.48749
--
molecule: CCCC[N+](CCCC)(CCCC)CCCC.O=S(=O)([O-])CC(O)CN1CCOCC1 [tetrabutylammonium 2-hydroxy-3-morpholinopropanesulfonate]
refractive index: 1.47111
